Quick reference for protein stability index among some sequences
experiment: protein stability index of a GFP-peptide fusion (yeast GPS) (PSI 1-4); higher = more stable; sorted into four equal gates, so the index is relative within each strain; details: ubr1∆
Reply: number alone, nothing else.

NRSVVYFKLDLTSDLVY [RRI2] :: 1.39
DLFSNNNYNSRIQLMND [MED1] :: 3.06
LTFNSKNIQSKDSYINA [FAS2] :: 2.68

Quick note, protein stability index for LPRKEVDDVLGGGWDNV [RPC11] landed at 3.32

Record VEIAFLFRAIYLYCLDN [YCG1] , field protein stability index: 1.2

In plain terms, GSYGSLLRFNGVERLIP [PRE4] has a documented protein stability index of 2.22

// protein stability index lookup, sequence = AAFEKRYRVDLLNTDHT [RPO21] , result: 2.88

Note to self: protein stability index recorded for VRSAEYYAKKRAFTKKV [RPL16B] was 3.1

Entry MSDVEEVVEVQEETVVE [RPS12] — recorded protein stability index = 3.12

Memo: ANNNINSASSAPTPAAP [SWI1] , reported protein stability index: 2.97

Entry under test: KTRNPLTHSTPKNFGIG [RPL8A] . Its protein stability index was 3.07

Summary for this sequence, ASRHGQKGTIGITYRRE [RPB2] : protein stability index is 2.22

In plain terms, TNKDIICQIISSTITGD [RPL5] has a documented protein stability index of 2.24

The reported value for IQAGKFDNKSTSEEQEA [SNF2] in terms of protein stability index is 2.94

// sample HGYFLQDKEKIDNLKDT [ITC1] , its protein stability index was 3.42

Form: sequence = IGFTIKEYENHSGELMR [SMC1] ; protein stability index = 2.86

The value of protein stability index measured for the sequence EESLTVLNCLRTMYFIL [YJR042W/NUP85] turned out to be 1.57

protein stability index recorded for this sequence, MVCETDVPSEDDPTQLV [RPO21] , is 2.56

Given item VQQFAQLPVGFKNMGNT [UBP6] , the value recorded as its protein stability index is 1.92

# protein stability index (sequence: IVNHEQDLPKINDKRAN [SRB4] ) is 3.08

DLENKFNRLKKQAHEKL [YIL149C/MLP2] yielded protein stability index of 2.81

Entry under test: ARTAANSIYCPTQTVAE [RPN6] . Its protein stability index was 2.04

The measured protein stability index associated with KQNEQLHVEQLSGGQKT [SMC3] reads 2.19

Note to self: protein stability index recorded for HQFHDILEEKTDLHLPK [NSL1] was 2.38

Reported protein stability index ( LKGKINNEMKSLQRSKS [SMC1] ) = 3.44

Item: DVKVSISHDDLQAVAVA [FAS2] | protein stability index: 2.22

# protein stability index of MFRNNYDGDTVTFSPTG [PRE5] = 3.18

====

experiment: protein stability index of a GFP-peptide fusion (yeast GPS) (PSI 1-4); higher = more stable; sorted into four equal gates, so the index is relative within each strain; conditions: pdr5∆
endpointName: protein stability index

Reported protein stability index ( MSNDPGNEVSSLYPPPP [MED7] ) = 2.92

The recorded protein stability index for entry RQVYKPVLDNPFTNEAH [POP3] equals 2.67

Measured protein stability index, KSTTPYVSALKRINKFL [POP7] : 1.55

Item: SVDESARIKDAFITQLE [YJL039C/NUP192] | protein stability index: 2.61

====

assay: protein stability index of a GFP-peptide fusion (yeast GPS) (PSI 1-4); higher = more stable; sorted into four equal gates, so the index is relative within each strain; details: pdr5∆
Reported protein stability index values follow for various sequences
API doc: respond with a numeric literal and nothing else, no unit.

Illustrative cases are given below, each with its answer.
SSLEELLLKDQQTAKKL [ECM29] :: 2.99
KSLHEMNERDWRILKED [PRP28] :: 3.05

Would you kindly look at the next entry?
Given item KPLGPCDVFWVQKDTAI [POP1] , the value recorded as its protein stability index is 3.03

====

assay: protein stability index of a GFP-peptide fusion (yeast GPS) (PSI 1-4); higher = more stable; sorted into four equal gates, so the index is relative within each strain; settings: san1∆
Listing of entries alongside the reported protein stability index.
Could you keep your reply to the number by itself?

PFYGSYTETDPAKVAEE [SRP54] :: 3.08
NEFQLQWGKYQTFGVDI [SWI1] :: 3.09
RIANIEQNHLDNNYNTA [YDL088C/ASM4] :: 3.08

sequence DFQIDGNIFELLSDTFE [RRI2] , protein stability index observed: 2.95

Value of protein stability index reported for the sequence YGMSITETFEKPQRTNT [RPB2] is 3.04

The reported value for NLRTQVTQQKRSLDENR [SMC1] in terms of protein stability index is 2.91

====

assay: protein stability index of a GFP-peptide fusion (yeast GPS) (PSI 1-4); higher = more stable; sorted into four equal gates, so the index is relative within each strain; settings: doa10∆
endpointName: protein stability index
Respond with the number and no other words.

Consider the worked cases shown below.
NFNLKPTKTLTTKERKK [PRP8] :: 1.98
ALGQDTEKMEEQLDLLS [MED11] :: 3.03
AIIRLHPSIYTQVFNIL [POP1] :: 2.02
STIPTRENGKGGQIAHI [ROX3] :: 3.01

Consider LAVIMDNIGEIDESLFN [YCG1] . Its measured protein stability index is 3.08

// protein stability index lookup, sequence = SHISASASPHLAPNMQL [SNF2] , result: 2.92

Form: sequence = KYDRKVPSPTGEYVKEP [RPO21] ; protein stability index = 2.98

Measured protein stability index, KSTTPYVSALKRINKFL [POP7] : 2.04

Reported protein stability index of LKDSKDFDESLKYLDDL [RPN9] : 3.02

So, AINVFPEGYKAKSISTS [RPO31] ? Its protein stability index was 2.03

====

experiment: protein stability index of a GFP-peptide fusion (yeast GPS) (PSI 1-4); higher = more stable; sorted into four equal gates, so the index is relative within each strain; conditions: pdr5∆
This section presents sequences with their documented protein stability index values.

LWRNFCRKLSFSDKVNA [ITC1] :: 1.76

According to the records, this sequence FDKKSFFNGKALNNAIP [PRP8] displays protein stability index of 1.91

For this sequence ( SAAMSIDKLSDVVMKAT [PRP8] ), measured protein stability index is 2.6

====

assay: protein stability index of a GFP-peptide fusion (yeast GPS) (PSI 1-4); higher = more stable; sorted into four equal gates, so the index is relative within each strain; details: doa10∆
protein stability index of 2 or higher: true (1). Under 2: false (0).

YASFNDTFVHVTDLSGK [RPS14B] :: true (1)
HKQGSSYVAVLGMGKAV [POP7] :: false (0)
DEAKDFIVSGTASDQLF [PUP3] :: true (1)
IASTLGPSAMRLSRCIR [RPC82] :: false (0)
LKVQKLSRPSLPKIKTV [RPL35A] :: true (1)

# next sequence below
**Q:** Exam item: decide whether the reported protein stability index for IQAGKFDNKSTSEEQEA [SNF2] is at least 2.
**A:** true (1)

====

Reported protein stability index values are given for each entry in this list.
test: protein stability index of a GFP-peptide fusion (yeast GPS) (PSI 1-4); higher = more stable; sorted into four equal gates, so the index is relative within each strain; settings: san1∆
Form rule: numeric answer, no unit written next to it.

Here is how some sequences turned out for protein stability index.
PKPDKPSGRTRGRSVMK [ESC2] :: 3.08
MAYFDENLNRNWRGREH [BRN1] :: 2.99
GNNNNNNSGNDNNNTTN [MED2] :: 3.08
ELALKTLSKTTDSSALT [PRE9] :: 2.54
NNIFKEFTSKIGFTIKE [SMC1] :: 2.76
LELRNSVMDDILEMMPE [PRP8] :: 3.15
NDNYSSDMENDNLLLNL [REC8] :: 2.82
CQLQNSDNSEEEEVDID [RRP43] :: 3.02
LKKELKLLAKELEEQES [SMC2] :: 2.9
LEGEELAFYLRRLTAKK [RPS8A] :: 1.93

Consider now this further sequence.
Short answer for SQKAKLMTFNAETKSYD [YLR335W/NUP2] : protein stability index was 2.3

====

test: protein stability index of a GFP-peptide fusion (yeast GPS) (PSI 1-4); higher = more stable; sorted into four equal gates, so the index is relative within each strain; settings: ubr1∆
# label = Y if protein stability index >= 3 else N

**Q:** Entry DIDVTIVSKEYEKNFEA [ESC2] : is its protein stability index no less than 3?
**A:** Y

**Q:** Item VQYKLLSISVPSDVNID [SNU114] with protein stability index of 3 or above?
**A:** N

Every entry's value here was drawn from the supplement of paper PMC9732359.
